Data provenance: patent US8361968B2

biological target: hOT7T175 (Homo sapiens, UniProt Q969F8, L364H); test: hOT7T175 receptor binding activity: binding inhibition of Cy-5-labeled metastin (40-54) on hOT7T175-expressed CHO cells
Sequence (Q969F8 whole entry L364H): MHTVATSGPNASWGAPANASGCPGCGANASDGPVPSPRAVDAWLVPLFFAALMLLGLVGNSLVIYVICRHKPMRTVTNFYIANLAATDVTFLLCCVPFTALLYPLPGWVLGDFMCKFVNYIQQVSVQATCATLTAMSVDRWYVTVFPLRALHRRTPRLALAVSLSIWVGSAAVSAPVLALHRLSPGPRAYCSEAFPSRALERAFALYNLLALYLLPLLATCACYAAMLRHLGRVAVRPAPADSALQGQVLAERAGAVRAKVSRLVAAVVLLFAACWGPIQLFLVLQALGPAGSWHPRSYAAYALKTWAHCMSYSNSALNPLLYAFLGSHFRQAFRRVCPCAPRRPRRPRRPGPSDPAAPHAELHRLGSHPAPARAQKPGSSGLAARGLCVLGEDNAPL
Square brackets hold non-standard residues; d marks the D form. Peptide text beside a SMILES is read from it. Arg(Me) = CNC(=N)NCCC[C@H](N)C(=O)O; azaGly = NNC(=O)O
Experimental readout: pIC50
One number for each entry, as −log10 of the molar value.

Examples from the recorded data:
CC(C)C[C@H](NC(=O)CNC(=O)[C@H](Cc1ccccc1)NC(=O)[C@H](CO)NC(=O)[C@H](CC(N)=O)NC(=O)[C@H](Cc1c[nH]c2ccccc12)NC(=O)[C@H](CC(N)=O)NC(=O)[C@@H](N)Cc1ccc(O)cc1)C(=O)N[C@@H](CCCCNC(=N)N)C(=O)N[C@@H](Cc1ccccc1)C(N)=O [Compound No. 97] = 6.43
CC(C)C[C@H](NC(=O)CNC(=O)[C@H](Cc1ccccc1)NC(=O)[C@H](CO)NC(=O)[C@H](CC(N)=O)NC(=O)[C@H](Cc1c[nH]c2ccccc12)NC(=O)[C@H](CC(N)=O)NC(=O)[C@H](Cc1ccc(O)cc1)NC(=O)[C@H](CC(N)=O)NC(=O)[C@@H]1CCCN1C(=O)[C@@H](N)CC(C)C)C(=O)N[C@@H](CCCNC(=N)N)C(=O)N[C@@H](Cc1ccccc1)C(N)=O [Compound No. 32, reference compound] = 7.60

# value of pIC50, hOT7T175 (Homo sapiens, UniProt Q969F8, L364H), item CNC(=N)NCCC[C@H](NC(=O)[C@H](CC(C)C)NC(=O)NNC(=O)[C@H](Cc1ccccc1)NC(=O)[C@H](CO)NC(=O)[C@H](CC(N)=O)NC(=O)[C@H](C)NC(=O)[C@H](CC(N)=O)NC(=O)[C@H](N)Cc1ccc(O)cc1)C(=O)N[C@@H](Cc1ccccc1)C(N)=O [Compound No. 235] (H-[dY]NANSF[azaGly]L[Arg(Me)]F-NH2) = 7.00
